Target: T1, Cdc25, P04821
T1 sequence (P04821 50-136, looked up): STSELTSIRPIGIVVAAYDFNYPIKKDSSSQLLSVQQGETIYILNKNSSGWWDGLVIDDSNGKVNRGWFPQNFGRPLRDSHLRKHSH
Assay: SPOT array
Settings: median of control spots 969
SPOT intensity values, listed per item
MEASURED_PROPERTY: SPOT intensity

BINDER | MEASURED_PROPERTY | ASSAY_RESULT
RRSKSLPITPKSIFN | SPOT intensity | 15
VAPPPLPNRQLPNLD | SPOT intensity | 0
KNPRRQLQIPRQQPS | SPOT intensity | 54
NGRRRPKFRVQLSGN | SPOT intensity | 87
QQNRPLPQLPNRNNR | SPOT intensity | 2
RVTRKRPREPKSTND | SPOT intensity | 28
ALKQKKIPPPFKPHL | SPOT intensity | 0

Data provenance is paper PMC2756588.
